experimental target: Beta-galactosidase (Escherichia coli)
method notes: potency against CXCR6 with APJ panel – cell-based, beta-arrestin, DiscoveRx, uHTS hits, dose response (AID 624129)
measurement setup: CXCR6 beta-arrestin (DiscoveRx) antagonist cell assay, b-galactosidase, dose range 1
Activity calls are given as the source filed them. How the calls were made is not given here.
Result category, one only: active, inactive

Example entries begin here.
- Cc1cccc(CSc2cccc3cccnc23)c1: inactive
- COc1cccc(-n2nc(C#N)c(Cl)cc2=O)c1: inactive

Status in this test for `CN(C)c1nc(=NCc2cccs2)ss1` ?
inactive

Try this molecule next: `Cc1ccsc1/C=C/c1ccc2cccc(O)c2n1`
inactive

###

Please go through the items and note down their IC50.
experimental target: UniProtKB P51684
method notes: potency against CXCR6 with APJ panel – cell-based, beta-arrestin, DiscoveRx, uHTS hits, dose response (AID 624129)
measurement setup: CXCR6 beta-arrestin (DiscoveRx) antagonist cell assay, CCR6, dose range 1, mean IC50 across replicates
One number for each entry, in µM.

Sample answers from the record:
* CC(Oc1cccc(Cl)c1)C(=O)Nc1nc(-c2ccccn2)cs1 (stereo unspecified) | 7.6
* Cn1nc([N+](=O)[O-])nc1Sc1cccc2cccnc12 | 13.7
* CCOc1cc(Br)c(Br)c(C=Nc2ccc(NC(C)=O)cc2)c1O | 40.4
* CN(O)C(=S)c1ccccc1 | 1.31
* O=C1C=CC2(O[C@H](c3ccccc3)[C@@H](c3ccccc3)O2)[C@H](Sc2ccccc2O)C1 | 3.07
* O=C1C=CC(=O)N1c1cccc(-c2ccccc2)c1 | 47

Below are 3 molecules. Give each one its IC50.
1. Cc1[nH][nH]c(=O)c1C(c1c(C)[nH][nH]c1=O)c1cn(Cc2ccc(F)cc2)c2ccccc12
2. Cc1c(Cl)sn(-c2ccc(Cl)cc2)c1=O
3. CCOc1ccc(N(CC(=O)N/N=C/c2ccccn2)S(=O)(=O)c2ccc(Cl)cc2)cc1

21.6
3.71
12.7

Fill in: IC50 of `C/C(=N/NC(=O)c1ccc(C(C)(C)C)cc1)c1ccccn1` is ___
1.53

###

experimental target: UniProtKB Q8VNN2
Sequence (Q8VNN2 whole entry, looked up): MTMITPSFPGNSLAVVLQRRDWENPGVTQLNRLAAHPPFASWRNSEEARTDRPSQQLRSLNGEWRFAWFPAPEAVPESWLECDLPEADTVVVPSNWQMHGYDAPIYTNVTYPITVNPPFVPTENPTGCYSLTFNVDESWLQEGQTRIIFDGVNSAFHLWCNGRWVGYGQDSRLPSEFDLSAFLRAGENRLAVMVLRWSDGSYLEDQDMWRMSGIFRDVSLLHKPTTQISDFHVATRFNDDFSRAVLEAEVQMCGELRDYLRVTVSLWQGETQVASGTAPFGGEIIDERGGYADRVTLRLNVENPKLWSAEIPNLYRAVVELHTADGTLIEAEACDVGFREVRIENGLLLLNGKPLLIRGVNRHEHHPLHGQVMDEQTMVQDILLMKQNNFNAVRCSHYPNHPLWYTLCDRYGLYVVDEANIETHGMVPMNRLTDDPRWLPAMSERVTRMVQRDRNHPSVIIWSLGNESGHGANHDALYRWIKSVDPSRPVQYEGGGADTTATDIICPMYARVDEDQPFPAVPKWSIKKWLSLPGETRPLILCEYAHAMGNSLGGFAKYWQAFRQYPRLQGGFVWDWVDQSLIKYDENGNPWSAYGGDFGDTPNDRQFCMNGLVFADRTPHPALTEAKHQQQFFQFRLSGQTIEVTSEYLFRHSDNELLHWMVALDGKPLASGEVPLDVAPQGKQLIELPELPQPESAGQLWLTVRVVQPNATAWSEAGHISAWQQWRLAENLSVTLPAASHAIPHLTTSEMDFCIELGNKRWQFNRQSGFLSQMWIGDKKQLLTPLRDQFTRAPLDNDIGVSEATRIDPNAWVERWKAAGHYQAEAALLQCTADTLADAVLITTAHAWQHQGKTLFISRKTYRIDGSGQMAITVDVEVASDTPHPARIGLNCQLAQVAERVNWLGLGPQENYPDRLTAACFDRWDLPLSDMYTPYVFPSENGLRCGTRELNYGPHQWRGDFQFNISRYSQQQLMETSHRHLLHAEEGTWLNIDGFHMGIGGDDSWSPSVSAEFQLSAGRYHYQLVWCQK
method notes: potency against CXCR6 with APJ panel – cell-based, beta-arrestin, DiscoveRx, uHTS hits, dose response (AID 624129)
measurement setup: CXCR6 beta-arrestin (DiscoveRx) antagonist cell assay, b-galactosidase, dose range 1
Calls of active or inactive are those of the source. The rule behind the calls is not given here.
Result category, one only: class 1 for active, class 0 for inactive

• C=C(CN(C)C)C(=O)c1ccc(C)cc1C = class 1
• O=C1C(Cc2ccccc2)Nc2ncnc(N3CCN(c4ccccc4)CC3)c2N1Cc1ccc(Cl)cc1 (stereo not given) = class 0
• O=C(CSc1nc(-c2ccco2)cc(C(F)(F)F)n1)NCCCn1ccnc1 = class 0
• C/C(=N\NC(=O)Cn1c(-c2ccccn2)nc2ccccc21)c1ccccc1 = class 1
• Cc1[nH][nH]c(=O)c1C(c1c(C)[nH][nH]c1=O)c1cn(Cc2ccc(F)cc2)c2ccccc12 = class 0

Status in this test for `O=[N+]([O-])c1c(NCCCO)cc(Sc2ccc(Cl)cc2)c2nonc12` ?
class 0

Try this molecule next: `COc1ccc(NC(=O)/C(Cl)=C(/Cl)S(=O)(=O)Cc2ccc(C)cc2)cn1`
class 0

###

experimental target: UniProt:P35414
method notes: potency against CXCR6 with APJ panel – cell-based, beta-arrestin, DiscoveRx, uHTS hits, dose response (AID 624129)
measurement setup: CXCR6 beta-arrestin (DiscoveRx) antagonist cell assay, APJ, run 3, dose range 1
assay metric: pIC50
Answers are plain numbers, as −log10 of the molar value.

- Cc1ccc(/C=N/NC(=S)N2CCOCC2)cc1: 5.31
- O=c1oc2ccccc2c(Cl)c1CN1CCCCC1: 4.72
- C=C(CN(C)C)C(=O)c1ccc(OC2OC(COC(C)=O)C(OC(C)=O)C(OC(C)=O)C2OC(C)=O)cc1 (configuration not stated): 4.39
- CN(O)C(=S)c1ccccc1: 5.27
- CC(C)(C)c1ccc(CN2N=Nc3ccccc3S2(=O)=O)cc1: 4.45
- CCn1c(=O)c([N+](=O)[O-])c(Cl)c2ccccc21: 4.27
- CCOc1ccc(N(CC(=O)N/N=C/c2ccccn2)S(=O)(=O)c2ccc(Cl)cc2)cc1: 4.86
- C/C(=N/NC(=O)c1ccc(C(C)(C)C)cc1)c1ccccn1: 5.84
- CC(=O)Nc1ccc(NCC(=O)c2ccccc2)cc1: 4.56

// moving on: another record for pIC50
Fill in: pIC50 of `Cc1ccc2c(Cl)cc(Cl)c(O)c2n1` is ___
5.15

###

experimental target: C-C chemokine receptor type 6 (Homo sapiens) (UniProt P51684)
method notes: potency against CXCR6 with APJ panel – cell-based, beta-arrestin, DiscoveRx, uHTS hits, dose response (AID 624129)
measurement setup: CXCR6 beta-arrestin (DiscoveRx) antagonist cell assay, CCR6, dose range 1, mean IC50 across replicates
Please go through the items and note down their pIC50.
Answers are plain numbers, as −log10 of the molar value.

Sample answers from the record:
• O=C(C#Cc1ccccc1)c1ccco1 = 5.00
• C/C(=N\NC(=O)C1COc2ccccc2O1)c1ccccn1 (stereo not given) = 5.41

Below are 8 molecules. Give each one its pIC50.
1. CCC1CCCCN1S(=O)(=O)c1ccc(NC(=O)c2nc(S(C)(=O)=O)ncc2Cl)cc1 (stereo not given)
2. CCC(=O)OCCNc1cc(Sc2nc3ccccc3s2)c2nonc2c1[N+](=O)[O-]
3. Oc1c(Cl)cc(Cl)c2cccnc12
4. O=C(CN1CCN(S(=O)(=O)c2ccc(Br)cc2)CC1)Nc1ccc2c(c1)OCO2
5. CCOc1ccccc1NC(=O)c1nc(S(=O)(=O)Cc2ccccc2)ncc1Cl
6. Cc1cnc(C(=O)Nc2cccc3cccnc23)cn1
7. COc1ccccc1C(=O)NNC(=S)NC(=O)c1cccs1
8. O=C1CN(C(=O)CSc2nc3cc(Cl)ccc3c(=O)n2Cc2ccccc2)c2ccccc2N1

1: 5.26; 2: 5.06; 3: 5.57; 4: 4.69; 5: 5.13; 6: 4.54; 7: 4.92; 8: 4.95

Below are 2 molecules. Give each one its pIC50.
1. O=C(Cn1sc2ccccc2c1=O)NC12CC3CC(CC(C3)C1)C2
2. O=C1C(Cc2ccccc2)Nc2ncnc(N3CCN(c4ccccc4)CC3)c2N1Cc1ccc(Br)cc1 (stereo not given)

[5.78, 5.81]

Below are 6 molecules. Give each one its pIC50.
1. O=C(C#Cc1ccccc1)c1ccc([N+](=O)[O-])cc1
2. Cc1ccc2c(Cl)cc(Cl)c(O)c2n1
3. CCc1cc2c(=O)[nH]c(-c3ccccn3)nc2s1
4. O=C1C=CC(=O)N1Cc1ccccc1
5. C=C1C(=O)OC2C1CCC(C)=C1C(=O)C3OC3(C)C12 (stereo not given)
6. O=C(OCn1ncc(Cl)c(Cl)c1=O)c1cccc(C(F)(F)F)c1

1. 5.76
2. 5.45
3. 5.61
4. 5.14
5. 5.16
6. 4.79

###

Please go through the items and note down their IC50.
experimental target: C-C chemokine receptor type 6 (Homo sapiens) (UniProt P51684)
method notes: potency against CXCR6 with APJ panel – cell-based, beta-arrestin, DiscoveRx, uHTS hits, dose response (AID 624129)
measurement setup: CXCR6 beta-arrestin (DiscoveRx) antagonist cell assay, CCR6, dose range 1

Below are 6 molecules. Give each one its IC50.
1. CC(Oc1ccc(F)cc1)C(=O)Nc1nc(-c2ccccn2)cs1 (stereo not given)
2. O=C(Nc1nc(-c2ccccn2)cs1)Nc1ccc(F)cc1F
3. C=C1C(=O)C23C(O)C1CCC2C12CCCC(C)(COC(C)=O)C1C(O)C3(O)OC2 (stereo not given)
4. CCC(=O)OCCNc1cc(Sc2nc3ccccc3[nH]2)c2nonc2c1[N+](=O)[O-]
5. O=C1C=CC2(C=C1)O[C@H](Cc1ccccc1)[C@@H](Cc1ccccc1)O2
6. Cc1[nH]n(-c2ccccc2)c(=S)c1C=NCCCN=Cc1c(C)[nH]n(-c2ccccc2)c1=S

1. 7.82 µM
2. 8.74 µM
3. 5.19 µM
4. 4.73 µM
5. 4.44 µM
6. 0.999 µM

Below are 3 molecules. Give each one its IC50.
1. Cc1ccc(C(C[N+](=O)[O-])Sc2ccc(N)cc2)cc1 (stereo not given)
2. Cc1ccc(C(=O)Sc2cccccc2=O)cc1
3. C/C(=N\NC(=O)C(c1ccccc1)c1ccccc1)c1ccccn1

["14.3 µM", "1.18 µM", "1.99 µM"]

Param readout = IC50; param system = C-C chemokine receptor type 6 (Homo sapiens) (UniProt P51684); param query = `N#CC(C#N)=C1C=CC=CN1/C(=C\c1ccco1)C(=O)c1ccc(Cl)cc1` ; response: value
20.9 µM

###

experimental target: C-X-C chemokine receptor type 6 (Homo sapiens)
method notes: potency against CXCR6 with APJ panel – cell-based, beta-arrestin, DiscoveRx, uHTS hits, dose response (AID 624129)
measurement setup: CXCR6 beta-arrestin (DiscoveRx) antagonist cell assay, CXCR6, dose range 1, mean IC50 across replicates
Bucketed by reported IC50, buckets being range 1 = under 10 µM, range 2 = from 10 µM up to 20 µM, range 3 = 20 µM and over

Example entries begin here.
* CNc1cc(Cl)c2nonc2c1[N+](=O)[O-] | range 1
* CC1=C(CO)C(=O)OC([C@@H](C)C2CC[C@H]3C4C[C@H]5O[C@]56[C@@H](O)C=CC(=O)[C@]6(C)C4CC[C@]23C)C1 (some centres undefined) | range 2
* Cc1ccccc1CS(=O)(=O)c1ncc(Cl)c(C(=O)Nc2ccc(F)cc2)n1 | range 2
* CC(=O)Nc1ccc2c(c1)Cc1cc(N3C(=O)C=CC3=O)ccc1-2 | range 2

Textbook exercise: identify the category of the molecule given here, `COc1cc(N2C(=O)C=CC2=O)ccc1N1C(=O)C=CC1=O` , according to its measured value.
range 2

Try this molecule next: `O=C1C(=C(c2ccccc2)N2CCOCC2)Cc2ccccc21`
range 1

Try this molecule next: `CN(C)S(=O)(=O)c1cccc(NC(=O)CSc2cccc3cccnc23)c1`
range 3

Try this molecule next: `CNC(=O)c1nnsc1S(=O)(=O)c1ccc(Cl)cc1`
range 2
